Value source: paper PMC5540273

tested on: ANKK1; details: concentration: 1 μM, replicates: in singlicate; n = 1;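 also: KINOMEscan kinase panel screen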
In this section, each of the compounds is paired with its reported %Inh.
Number plus unit, in that order.

compound | %Inh
O=C(Nc1n[nH]c2nc(-c3nccs3)c(Br)cc12)C1CC1 [SB-742251] | 0%

Q: So what does the record say about %Inh for NC(=O)c1nnc2ccccc2c1N ?
Ans: 34%

Q: So what does the record say about %Inh for Cc1cccc(-c2nc(Nc3cccc(C(N)=O)c3)c3ccccc3n2)n1 [GW876019] ?
Ans: 0%

Q: So what does the record say about %Inh for COc1ccc(Nc2nccc(NCCNC(=O)Nc3ccccc3F)n2)cc1 [GSK1379901] ?
Ans: 22%
